# assay system: hA2AAR (Homo sapiens (Human))
# Sequence (P29274 whole entry): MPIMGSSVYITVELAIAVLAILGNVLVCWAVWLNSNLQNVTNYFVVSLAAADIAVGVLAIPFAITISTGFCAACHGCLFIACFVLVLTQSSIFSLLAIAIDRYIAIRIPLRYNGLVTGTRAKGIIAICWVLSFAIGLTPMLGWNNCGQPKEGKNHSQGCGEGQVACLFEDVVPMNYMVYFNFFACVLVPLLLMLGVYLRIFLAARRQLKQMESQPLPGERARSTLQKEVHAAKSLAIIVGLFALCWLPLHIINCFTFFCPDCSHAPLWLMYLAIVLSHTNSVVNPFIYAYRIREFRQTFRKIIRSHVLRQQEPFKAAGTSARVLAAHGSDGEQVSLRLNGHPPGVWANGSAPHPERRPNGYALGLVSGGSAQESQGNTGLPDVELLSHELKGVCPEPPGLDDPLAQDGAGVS
# test name: Radioligand membrane binding at hA2AAR (Example 6)
# measurement context: percent inhibition of radioligand binding at 10 μM

{"columns": ["molecule", "(% inhibition) A2A"],
 "data": [
  ["CCNc1nc(Cl)nc2c1ncn2[C@H]1[C@H](O)[C@H](O)[C@@H]2C[C@@H]21 [Compound 115]", "(11%)"],
  ["CC(C)Nc1nc(Cl)nc2c1ncn2[C@H]1[C@H](O)[C@H](O)[C@@H]2C[C@@H]21 [Compound 117]", "(39%)"],
  ["CC(Nc1nc(Cl)nc2c1ncn2[C@H]1[C@H](O)[C@H](O)[C@@H]2C[C@@H]21)C1CC1 (stereo partly drawn) [Compound 120]", "(41%)"]
]}

* * *

# assay system: hA3AR (Homo sapiens (Human), UniProt P0DMS8)
# Sequence (P0DMS8 whole entry): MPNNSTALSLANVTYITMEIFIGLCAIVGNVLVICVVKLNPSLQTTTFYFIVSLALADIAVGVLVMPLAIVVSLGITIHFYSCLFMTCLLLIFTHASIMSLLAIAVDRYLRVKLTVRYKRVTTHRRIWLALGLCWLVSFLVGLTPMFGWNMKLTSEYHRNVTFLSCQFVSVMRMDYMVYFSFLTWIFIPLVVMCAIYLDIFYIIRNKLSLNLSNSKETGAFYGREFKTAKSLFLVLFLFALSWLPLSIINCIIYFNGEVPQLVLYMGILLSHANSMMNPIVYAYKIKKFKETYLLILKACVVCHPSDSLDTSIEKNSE
# test name: Radioligand membrane binding at hA3AR (Example 6)
# measurement context: CHO cells expressing hA3AR; [125I]I-AB-MECA; n = 3-5; read-out: Affinity Ki, nM A3
measurement type: Ki (nM)
Enter your answer as a number in nM; do not include the unit.

CC[C@@H](Nc1nc(Cl)nc2c1ncn2[C@H]1[C@H](O)[C@H](O)[C@@H]2C[C@@H]21)C1CC1 has a reported Ki of 150

O[C@@H]1[C@H](O)[C@@H]2C[C@@H]2[C@H]1n1cnc2c(NCc3cccc(OCCF)c3)nc(Cl)nc21 has a reported Ki of 15.2

CC(C)Nc1nc(Cl)nc2c1ncn2[C@H]1[C@H](O)[C@H](O)[C@@H]2C[C@@H]21 has a reported Ki of 12

OCc1cc(F)c(F)cc1CNc1nc(Cl)nc2c1ncn2[C@@]12C[C@H](O)[C@H](O)[C@@H]1C2 has a reported Ki of 40.4

O[C@@H]1[C@H](O)[C@@H]2C[C@@H]2[C@H]1n1cnc2c(NCC3CC3)nc(Cl)nc21 has a reported Ki of 8.9

O[C@@H]1[C@H](O)[C@@H]2C[C@@H]2[C@H]1n1cnc2c(NCc3ccccc3F)nc(Cl)nc21 has a reported Ki of 41.5

O[C@@H]1[C@H](O)[C@@H]2C[C@@H]2[C@H]1n1cnc2c(NCc3cc(F)ccc3F)nc(Cl)nc21 has a reported Ki of 114

* * *

# assay system: hA1AR (Homo sapiens (Human), UniProt P30542)
# Sequence (P30542 whole entry): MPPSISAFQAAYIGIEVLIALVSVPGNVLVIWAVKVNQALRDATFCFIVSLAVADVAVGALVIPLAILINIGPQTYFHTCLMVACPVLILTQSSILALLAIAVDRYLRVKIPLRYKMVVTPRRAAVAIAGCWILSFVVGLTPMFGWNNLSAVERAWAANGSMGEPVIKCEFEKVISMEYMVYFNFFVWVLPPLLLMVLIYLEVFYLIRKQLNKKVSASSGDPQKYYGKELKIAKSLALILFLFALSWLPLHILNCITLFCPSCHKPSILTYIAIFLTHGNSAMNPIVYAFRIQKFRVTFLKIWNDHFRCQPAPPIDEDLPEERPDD
# test name: A1AR functional assay, inhibition of forskolin-stimulated cyclic AMP production in AR-transfected CHO cells
# Format: cell-based
# measurement context: CHO; read-out: % Inhibition, cyclic AMP A1
Quick rule: inhibition at 10 µM of at least 50% means label 1, below that means label 0.

Assess whether reported inhibition at 10 µM for CCC(CC)Nc1nc(Cl)nc2c1ncn2[C@H]1[C@H](O)[C@H](O)[C@@H]2C[C@@H]21 [Compound 118] sits at 50% or higher.
label 0

Assess whether reported inhibition at 10 µM for O[C@@H]1[C@H](O)[C@@H]2C[C@@H]2[C@H]1n1cnc2c(NC3CCCCCC3)nc(Cl)nc21 [Compound 111] sits at 50% or higher.
label 0

Assess whether reported inhibition at 10 µM for CC(C)[C@H](Nc1nc(Cl)nc2c1ncn2[C@H]1[C@H](O)[C@H](O)[C@@H]2C[C@@H]21)C1CC1 [Compound 215] sits at 50% or higher.
label 0

Assess whether reported inhibition at 10 µM for CC[C@H](Nc1nc(Cl)nc2c1ncn2[C@H]1[C@H](O)[C@H](O)[C@@H]2C[C@@H]21)C1CC1 [Compound 213] sits at 50% or higher.
label 1

Assess whether reported inhibition at 10 µM for O[C@@H]1[C@H](O)[C@@H]2C[C@@H]2[C@H]1n1cnc2c(NCC(C3CC3)C3CC3)nc(Cl)nc21 [Compound 207] sits at 50% or higher.
label 0

Assess whether reported inhibition at 10 µM for O[C@@H]1[C@H](O)[C@@H]2C[C@@H]2[C@H]1n1cnc2c(NC3CC3)nc(Cl)nc21 [Compound 108] sits at 50% or higher.
label 1
